Reported IC50, cGMP-PDE prepared from porcine aorta (Sus scrofa, UniProt A0A287B475).
Structures can show the parent of a compound that is named as a salt.
assayEndpoint: IC50 (nM)

Consider the reported IC50 for these compounds:
>  <compound>
O=[N+]([O-])c1ccc2nc(Cl)nc(NCc3ccc4c(c3)OCO4)c2c1 [Example 3]

>  <unitInfo>
nM

>  <IC50>
5.27

$$$$
>  <compound>
CCOC(=O)C1CCN(c2nc(NCc3ccc4c(c3)OCO4)c3cc(N)ccc3n2)CC1 [Example 12, dihydrochloride]

>  <unitInfo>
nM

>  <IC50>
1130

$$$$
>  <compound>
c1nc(NCc2ccc3c(c2)OCO3)c2cc(-n3cncn3)ccc2n1 [Example 15]

>  <unitInfo>
nM

>  <IC50>
360

$$$$
>  <compound>
CCOC(=O)C1CCN(c2nc(NCc3ccc4c(c3)OCO4)c3cc(-n4cccn4)ccc3n2)CC1 [Example 6, hydrochloride]

>  <unitInfo>
nM

>  <IC50>
8.09

$$$$
>  <compound>
COc1ccc(CNc2ncnc3ccc(-n4cnc(C)c4)cc23)cc1Cl [Example 17]

>  <unitInfo>
nM

>  <IC50>
403

$$$$
>  <compound>
CN(C)c1ccc2nc(Cl)nc(NCc3ccc4c(c3)OCO4)c2c1 [Example 2]

>  <unitInfo>
nM

>  <IC50>
120

$$$$

P. O=C(O)C1CCN(c2nc(NCc3ccc4c(c3)OCO4)c3cc(-n4cccn4)ccc3n2)CC1 [Example 9]
Q. Clc1nc(NCc2ccc3c(c2)OCO3)c2cc(N3CCCCC3)ccc2n1 [Example 4]
R. Clc1nc(NCc2ccc3c(c2)OCO3)c2cc(-n3cccn3)ccc2n1 [Example 1]
S. O=C(O)C1CCN(c2nc(NCc3ccc4c(c3)OCO4)c3cc([N+](=O)[O-])ccc3n2)CC1 [Example 11]
Rank the 4 compounds: largest IC50 first, smallest last. Answer by listing the labels in the order asked for.
Q, R, P, S
(Q: 1220 nM, R: 9.9 nM, P: 1.48 nM, S: 0.76 nM)

// data source = patent US5707998A
